molecular target: affinity purified β2GPI-dependent antiphospholipid antibody; assay: Competitive inhibition ELISA: recombinant β2GPI proteins compete for antibody binding to coated full length recombinant β2GPI; set-up: species or system human; conditions: Ab 6632; read-out: 50% (concentration to give 50% inhibition)
pIC50: −log10 of the molar value.

molecule	pIC50
1234-: recombinant β2GPI deletion mutant with domains 1, 2, 3, 4 (protein) GRTCPKPDDLPFSTVVPLKTFYEPGEEITYSCKPGYVSRGGMRKFICPLTGLWPINTLKCTPRVCPFAGILENGAVRYTTFEYPNTISFSCNTGFYLNGADSAKCTEEGKWSPELPVCAPIICPPPSIPTFATLRVYKPSAGNNSLYRDTAVFECLPQHAMFGNDTITCTTHGNWTKLPECREVKCPFPSRPDNGFVNYPAKPTLYYKDKATFGCHDGYSLDGPEEIECTKLGNWSAMPSCGHHHHHH	5.70
123--: recombinant β2GPI deletion mutant with domains 1, 2, 3 (protein) GRTCPKPDDLPFSTVVPLKTFYEPGEEITYSCKPGYVSRGGMRKFICPLTGLWPINTLKCTPRVCPFAGILENGAVRYTTFEYPNTISFSCNTGFYLNGADSAKCTEEGKWSPELPVCAPIICPPPSIPTFATLRVYKPSAGNNSLYRDTAVFECLPQHAMFGNDTITCTTHGNWTKLPECGHHHHHH	6.70
1----: recombinant β2GPI protein with domain 1 only (SEQ ID NO:4 region), His6 tail (protein) GRTCPKPDDLPFSTVVPLKTFYEPGEEITYSCKPGYVSRGGMRKFICPLTGLWPINTLKCTPRVGHHHHHH	5.10
